Assay: enhancers of single-cell hiPSC survival, primary screen, ATPlite luminescence (AID 602274);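 further: cells exposed to compounds for 16 hours before the ATP read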
Details: at 20 µM, 100% = ROCK inhibitor wells, 0% = DMSO
Hit rate of the full screen: of about 360,000 compounds, about 160 (0.044%) were called active. No stated cut-off is given here; in the data, active means survival enhancement above about 18%; inactive means the rest. This excerpt belongs to a sample that is enriched for actives.
# valid calls are true (1) for active, false (0) for inactive; nothing else

Prompt line: Kindly provide the recorded test outcome for the following compound: "O=C(NN=Cc1ccccc1O)C(=O)NN=Cc1ccccc1O"
Response line: false (0)

Prompt line: Kindly provide the recorded test outcome for the following compound: "COc1ccc(CCNC(=O)CN2C(=O)COc3ccc(S(=O)(=O)N4CCCC4)cc32)cc1OC"
Response line: false (0)

Prompt line: Kindly provide the recorded test outcome for the following compound: N=C1C(=O)OCC1c1ccccc1NC(=O)CN1CCCCC1 (configuration not stated)
Response line: false (0)

Prompt line: Kindly provide the recorded test outcome for the following compound: "C/C(=N\NS(=O)(=O)c1ccccc1)c1c(O)cc(C)oc1=O"
Response line: false (0)

Prompt line: Kindly provide the recorded test outcome for the following compound: CCCCN1C(=O)CC(N2CCOCC2)C1=O (configuration not stated)
Response line: false (0)

Kindly review the next compound as well.
Prompt line: Kindly provide the recorded test outcome for the following compound: "CC(C)(C)C(=O)NCCCNc1ccc([N+](=O)[O-])cc1"
Response line: false (0)

* * *

Test: enhancers of single-cell hiPSC survival, primary screen, ATPlite luminescence (AID 602274);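 further: cells exposed to compounds for 16 hours before the ATP read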
Settings: at 20 µM, 100% = ROCK inhibitor wells, 0% = DMSO
Hit rate of the full screen: of about 360,000 compounds, about 160 (0.044%) were called active. No stated cut-off is given here; in the data, active means survival enhancement above about 18%; inactive means the rest. Shown is part of a subset that was picked to be rich in actives.
# valid calls are active, inactive; nothing else

Prompt line: Kindly provide the recorded test outcome for the following compound: "O=C(CS(=O)(=O)c1cn(Cc2ccc(Cl)cc2)c2ccccc12)N1CCOCC1"
Response line: inactive

Prompt line: Kindly provide the recorded test outcome for the following compound: "COc1cc(OC)cc(C(=O)Nc2ncc3c(n2)CC(C)(C)CC3=O)c1"
Response line: inactive

Prompt line: Kindly provide the recorded test outcome for the following compound: "CCOc1ccc(OCC)c(-c2c(=O)n(OCc3ccc(Cl)cc3)c3ccccc3[n+]2[O-])c1"
Response line: inactive

Prompt line: Kindly provide the recorded test outcome for the following compound: "COC(=O)C1=C(C)N(C)C(C)=C(C(=O)OC)C1c1cccc(Br)c1"
Response line: active

Prompt line: Kindly provide the recorded test outcome for the following compound: CNC(=O)NC(=O)C(OC(=O)c1cccc(S(=O)(=O)N2CCCCC2)c1)c1ccccc1 (configuration not stated)
Response line: inactive

---
Prompt line: Kindly provide the recorded test outcome for the following compound: COC(=O)c1ccc(CN2CCCC(C(=O)Nc3cccc(-n4cnnn4)c3)C2)cc1 (configuration not stated)
Response line: inactive

Prompt line: Kindly provide the recorded test outcome for the following compound: COC(=O)C(C)Sc1ccc2nnc(-c3cccc(F)c3)n2n1 (configuration not stated)
Response line: inactive

* * *

So I've got a bunch of molecules here, and I need their survival enhancement values.
Assay: enhancers of single-cell hiPSC survival, primary screen, ATPlite luminescence (AID 602274);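 further: cells exposed to compounds for 16 hours before the ATP read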
Conditions: at 20 µM, hits give high values, 100% = ROCK inhibitor wells, 0% = DMSO
Among all 360,000 compounds or so, about 160 (0.044%) were called active. This excerpt belongs to a sample that is enriched for actives.
Numbers only, in %.

Prompt line: Read off the recorded survival enhancement for "C=CCc1cccc2cc(C(=O)NC3CCCC3)c(=O)oc12"
Response line: 0.2

Please state, for each entry, its recorded survival enhancement.
1. CC(C)C[C@H](NC(=O)C1CCC(CNC(=O)[C@@H]2CCCN2C(=O)OC(C)(C)C)CC1)C(=O)O (some centres undefined)
2. CCc1ccc([C@@H]2CC(=O)[C@@H]3CN(S(=O)(=O)c4ccc(C)cc4)[C@H](c4ccc(Cl)cc4)C[C@@H]3N2S(=O)(=O)c2ccc(C)cc2)cc1
3. O=C(NCc1ccccc1CN1CCCC1)c1cccc(S(=O)(=O)Nc2ccc(F)cc2)c1
4. Cc1ccc(C(=O)N/C(=C\c2ccco2)C(=O)NC2CCS(=O)(=O)C2)cc1 (centres undefined)
5. OC[C@@H]1CN(Cc2ccc(Cl)cc2)C[C@H](n2cnc3c(NCc4ccncc4)ncnc32)O1
6. CCCS(=O)(=O)Nc1c(C(=O)O)[nH]c2ccccc12
7. O=C(NCc1cccnc1)c1cc(C2CCCN(C(=O)C3CCCCC3)C2)on1 (centres undefined)
8. c1ccc2cc3c(NCCN4CCOCC4)ccnc3cc2c1

Response line:
0.8
0.5
-0.3
-0.5
0.8
0.3
0.4
-2.3

Please state, for each entry, its recorded survival enhancement.
1. O=C(Nc1ccncc1)c1c(F)cccc1F
2. CC(=O)OCCN(CCCn1c(-c2ccncc2)nc2ccccc21)c1nc(-c2ccc(C)cc2)cs1
3. C=CCn1nc(-c2ccccc2)c2c(C)onc2c1=O
4. CC1CCCCC12NC(=O)N(CC(=O)N1CCN(c3ccccc3)CC1)C2=O (centres undefined)
5. CN1C(=O)[C@H]2[C@@H](C3CC3)N3C(=O)CN(Cc4ccccc4)C(=O)[C@@]3(C)[C@H]2C1=O

Response line:
1: 39.6; 2: 0.8; 3: 0.6; 4: -0.5; 5: -2.2

* * *

Test: enhancers of single-cell hiPSC survival, primary screen, ATPlite luminescence (AID 602274);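 further: cells exposed to compounds for 16 hours before the ATP read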
Conditions: at 20 µM, hits give high values, 100% = ROCK inhibitor wells, 0% = DMSO
The whole screen tested about 360,000 compounds, of which about 160 (0.044%) were called active. Many of the other results were omitted from the sample, so actives are more common in it than they were.
METRIC: survival enhancement (%)
Answers are plain numbers, in %.

Please review the following examples before continuing.
Prompt line: Read off the recorded survival enhancement for CCC1CCCCN1CCNS(=O)(=O)c1ccc2c(c1)CCN2C(C)=O (stereo unspecified)
Response line: -1.5

Prompt line: Read off the recorded survival enhancement for "C=CCn1c(C23CC4CC(CC(C4)C2)C3)n[nH]c1=S"
Response line: -0.3

Prompt line: Read off the recorded survival enhancement for COc1cccc(CNC(=O)CN2C(=O)NC(Cc3ccccc3)(c3ccccc3)C2=O)c1 (stereo unspecified)
Response line: -1.1

Prompt line: Read off the recorded survival enhancement for "O=C(NCc1ccccc1)C1=C[C@@H](c2ccccc2)C[C@@H](OCCCCO)O1"
Response line: -2.5

Prompt line: Read off the recorded survival enhancement for "O=C(CCCN1C(=O)c2ccccc2C1=O)Oc1ccc(Cl)cc1"
Response line: 3.7

Please state, for each entry, its recorded survival enhancement.
1. C=Cc1ccc(C(=O)N2CCCC(CCC(=O)N3CCN(c4ccccn4)CC3)C2)cc1 (stereo unspecified)
2. C[C@H](CO)N1C[C@H](C)[C@@H](CN(C)C(=O)C2CCCCC2)OCc2cnnn2CCCC1=O
3. CCN(CC)c1ccc(NC(=O)c2ccc(=O)[nH]c2)cc1S(=O)(=O)Nc1ccc(OC)cc1
4. Nc1ncnc2c1ncn2[C@@H]1O[C@H](C(=O)NCC(F)(F)F)[C@@H](O)[C@H]1O
5. O=C1CC2(CCCC2)C(=O)N1CN1CCN(S(=O)(=O)c2ccc(F)cc2F)CC1

Response line:
1: -0.4; 2: 5.1; 3: 1.7; 4: 1.8; 5: -0.8

Please state, for each entry, its recorded survival enhancement.
1. CC1CCCCC1NC(=O)Cn1c(=O)cnc2ccccc21 (stereo unspecified)
2. COCCC(=O)N1CCC(Oc2ccc(C(=O)NCc3ccon3)cc2)CC1
3. CC(C)CC(CC(C)C)=NNC(=O)c1ccc(CSc2nncn2C)cc1
4. COc1ccc(C(C(=O)NCc2ccccc2)N(Cc2cccs2)C(=O)c2cnccn2)cc1 (stereo unspecified)
5. Cc1ccc(S(=O)(=O)N2CCN(C(=O)COC(=O)/C=C/c3cccc(Cl)c3)CC2)c(C)c1
6. Cc1ccccc1C(OCCN(C)C)C1CCCCC1 (stereo unspecified)
7. COc1ccc(C(=O)CSc2nnc(NC(=O)C3CC(=O)N(c4cccc(OC)c4)C3)s2)cc1 (stereo unspecified)

Response line:
-0.7
-0.4
2.3
6.6
-0.9
-3.9
0.9

Please state, for each entry, its recorded survival enhancement.
1. C[C@@H]1ON(C)[C@H]2C[C@H]3c4cc(N5CCN(C)CC5)ccc4CCN3C(=O)[C@@H]12
2. CCOC(=O)c1c(C)[nH]c(C(=O)NCCN2CCOCC2)c1C
3. COc1cc(C(=O)NC(=S)NCc2ccco2)cc(OC)c1OC

Response line:
-2.2
-0.1
-1.8

* * *

Experiment: enhancers of single-cell hiPSC survival, primary screen, ATPlite luminescence (AID 602274);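 further: cells exposed to compounds for 16 hours before the ATP read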
Details: at 20 µM, 100% = ROCK inhibitor wells, 0% = DMSO
Screen size: about 360,000 compounds; about 160 (0.044%) were called active. Cut-off read from the data, not from the text of the source: active = survival enhancement above about 18%; inactive = the rest. The full list was thinned out, with actives kept by preference.
# valid calls are active, inactive; nothing else

Prompt line: Kindly provide the recorded test outcome for the following compound: COC(=O)C1=C(C)N(C)C(=S)NC1c1cc(OC)ccc1OC (stereo not given)
Response line: inactive

Prompt line: Kindly provide the recorded test outcome for the following compound: CC(=O)c1ccccc1NC(=O)COC(=O)C1COc2ccccc2O1 (stereo not given)
Response line: inactive

Prompt line: Kindly provide the recorded test outcome for the following compound: "CN1CCN(C(=O)c2cnn(-c3ccccc3)c2NC(=O)c2ccc([N+](=O)[O-])cc2)CC1"
Response line: inactive

Prompt line: Kindly provide the recorded test outcome for the following compound: "O=C(CSc1nnc(CN2CCCC2)n1-c1ccc(F)cc1)c1ccc2c(c1)OCO2"
Response line: inactive

Prompt line: Kindly provide the recorded test outcome for the following compound: "CCOC(=O)c1ccn(-c2nc(-c3ccco3)cc(C(F)(F)F)n2)n1"
Response line: inactive

---
Prompt line: Kindly provide the recorded test outcome for the following compound: "CC1(C)COC(c2cccn2Cc2ccccc2Cl)=N1"
Response line: inactive

Prompt line: Kindly provide the recorded test outcome for the following compound: O=C(Nc1nc(-c2ccncc2)cs1)C1COc2ccccc2O1 (stereo not given)
Response line: active

Prompt line: Kindly provide the recorded test outcome for the following compound: CC(=O)Nc1ccc(S(=O)(=O)Oc2ccc(/C=N/N=C3/NC(=O)C(CC(=O)O)S3)cc2)cc1 (stereo not given)
Response line: inactive

Prompt line: Kindly provide the recorded test outcome for the following compound: COC(=O)C1NN=C(C(=O)c2ccc(Br)cc2)C1c1cccc(Br)c1 (stereo not given)
Response line: inactive

Prompt line: Kindly provide the recorded test outcome for the following compound: "Cc1cccc([C@@H]2[C@@H]3C(=O)N(Cc4ccccc4)C(=O)[C@@H]3[C@]3(Cc4ccc(Cl)cc4)C(=O)N(c4cccc(Cl)c4)C(=O)N23)c1"
Response line: inactive

Where do these numbers come from? They come from PubChem BioAssay AID602274.
